Cited source for all entries: patent US8445531B2

PROTOCOL SUMMARY: Liver residue follow-up (remanence) in rats
Format: in vivo
EXPERIMENTAL PARAMETERS: ip; rat liver, 3 doses of 10 mg/kg intraperitoneally at T0, T24h, T48h; T72 h
READOUT NAME: concentration at 72 h (ng/g)

1) C/C(=C\Cc1c(O)c2ccccc2oc1=O)CCCC(C)CCCC(C)CCCC(C)C (stereo not shown) [Compound According to the Invention, 3-phytyl-4-hydroxy-coumarin]
650

====

PROTOCOL SUMMARY: Liver residue follow-up (remanence) in rats
Format: in vivo
EXPERIMENTAL PARAMETERS: ip; rat liver, 3 doses of 10 mg/kg intraperitoneally at T0, T24h, T48h; T96 h
READOUT NAME: concentration at 96 h (ng/g)

1. C/C(=C\Cc1c(O)c2ccccc2oc1=O)CCCC(C)CCCC(C)CCCC(C)C (stereo not shown) [Compound According to the Invention, 3-phytyl-4-hydroxy-coumarin]
510
